Give measured TGI for each item. Keep answers brief.
System: UO-31 renal
method: NCI tumour cell line growth inhibition, 48 h

Here are 10 molecules together with their reported answers.
Cc1nnc([S-])o1.[Au+].c1ccc([PH+](c2ccccc2)c2ccccc2)cc1    3.02 µM
NS(=O)(=O)c1ccc(Nc2ncc(-c3ccccc3)o2)cc1    > 25 µM
CC1(C)N([O-])[N+](=O)C1(C)Br (stereo unspecified)    > 100 µM
CC1(C)[C@@H](Cn2nnc3c(N)ncnc32)CC[C@@]1(C)CO    > 100 µM
COC(=O)c1cc2cc(-c3ccc(OC)cc3)cnc2[nH]1    24.1 µM
CC(NC(=O)CNP(=O)(c1ccccc1)c1ccccc1)C(=O)NC(Cc1ccccc1)C(=O)OCc1ccccc1 (stereo unspecified)    > 100 µM
O=C(/C=C\c1ccc(-c2ccccc2)cc1)c1cccs1    > 100 µM
C[C@]12CCc3nonc3C1CC[C@@H]1C2CC[C@]2(C)C(=O)/C(=N\O)CC12 (stereo partly specified)    > 100 µM
CCC(C)NC1=C(NC(C)=O)C(=O)c2ccccc2C1=O (stereo unspecified)    > 75 µM
C=CCOC1=CC(=O)c2ccccc2C1=O    7.4 µM

stdin: Please state recorded TGI (tested on UO-31 renal) of COC(=O)C12C3C4C1C1C2C3C41C(=O)O (stereo unspecified)
stdout: > 100 µM

----------
Tested on: SF-295 CNS
method: NCI tumour cell line growth inhibition, 48 h
experimental-readout: TGI

Use the examples below as a reference point.
CN(N=O)C(=O)N(N)CCCCC(NC(=O)OCc1ccccc1)C(=O)OCc1ccccc1 (stereo unspecified)    > 100 µM
COc1ccc(NS(=O)c2ccc(Cl)cc2)cc1 (stereo unspecified)    > 100 µM
O=C(O)CCC(=O)C(=O)O    > 100 µM
CO[C@@H](C(=O)N1Cc2[nH]nc(NC(=O)c3ccc(N4CCN(C)CC4)cc3)c2C1)c1ccccc1    > 100 µM
[N-]=[N+]=NC1=CC(=O)c2cccc3cccc1c23    84.3 µM

Parameter requested: TGI. Apply to each item below.
1. CC1=C(C(=O)Nc2ccc(Cl)c(Cl)c2)C(c2ccccc2Cl)NC(=S)N1 (stereo unspecified)
2. CCN(CC)CCCN1C(=O)c2c(c(C)c3c(oc4ccc(O)cc43)c2C)C1=O
3. COc1cccc(-n2ncc3c(N/N=C/c4ccc(F)cc4)ncnc32)c1

stdout:
22 µM
3.26 µM
> 25 µM

----------
Test system: UACC-257 melanoma
method: NCI tumour cell line growth inhibition, 48 h
Please provide measured TGI for the entries that follow.
One number for each entry, in µM.

Cn1c2ccccc2c(=NNc2ccc(S(N)(=O)=O)cc2)c2ccccc21    49.8

Return reported TGI values for all items listed beneath this line.
1. O=C(Nc1cccc(-n2cc(-c3ccncc3)c(-c3ccc(Cl)c(O)c3)n2)c1)Nc1cccc(C(F)(F)F)c1
2. O=C(NC1CCCCC1)NS(=O)(=O)c1ccc(-n2nc3c(c2-c2cccs2)Cc2ccccc2-3)cc1
3. COc1ccc(NC(=O)C(=O)NO)c(OC)c1

stdout:
1. 19.1
2. 72.7
3. 38

----------
Test system: HCT-116 colon
method: NCI tumour cell line growth inhibition, 48 h
experimental-readout: TGI (µM)
Answers are plain numbers, in µM.

Below, each entry is followed by its recorded TGI result.
C=C(C)[C@@H]1CC[C@]2(COC(C)=O)CC[C@]3(C)[C@H](CC[C@@H]4[C@@]5(C)CCCN(C(C)=O)C(C)(C)[C@@H]5CC[C@]43C)[C@@H]12    3.31
CCN(CC)CCn1c(=O)c2ccccc2n2c3c(=O)n(C)c(=O)n(C)c3nc12    8.71
O=[N+]([O-])c1cccc2nc3ccccc3c(NCCO)c12    0.00047
CCSc1ccc2c(c1)N(CCCN1CCN(C)CC1)c1ccccc1S2    4.4
CC(C)(C)CC(C)(C)c1ccc(OCCSC(=N)N)cc1    2.85

Give measured TGI for every item shown.
1. COC(=O)[C@@H]1CCCN1C(=O)[C@@H]1CCCN1C(=O)[C@H](Cc1ccccc1)NC(=S)Nc1cc(C(F)(F)F)cc(C(F)(F)F)c1
2. CCCCCCCCCCCCCCCCNC(=O)OC(C)C
3. C=C(C)[C@@H]1C/C=C(\COC(=O)[C@H](OC(C)=O)C(NC(=O)c2ccccc2)c2ccccc2)CC[C@H]2O[C@]2(C)CC/C=C(\C)CC1 (stereo not given in full)

stdout:
1: 15.2; 2: 4.17; 3: 38.1

Please look at the items below and tell me TGI for each one, in order.
1. CCN(CCCNC(=O)Cc1cc(=O)oc2cc(N(C)C)ccc12)CCNc1ccnc2cc(Cl)ccc12
2. COc1cc(-c2cc(/C=C3\C(=O)Nc4ccc(Cl)cc43)[nH]n2)cc(OC)c1OC
3. C/C=C(/C(=C/C)c1ccc(O)cc1)c1ccc(O)cc1
4. O=C(c1ccco1)N(Cc1cccnc1)C(=S)N(Cc1cccnc1)C(=O)c1ccco1
5. COc1cc(-c2cncn2-c2ccc(-c3nc4ccc(F)cc4s3)cc2)ccc1F
6. NS(=O)(=O)N(c1cc(C(F)(F)F)cc(C(F)(F)F)c1)C1CCN(Cc2ccc(C(F)(F)F)cc2)CC1

stdout:
1. 17
2. 69.3
3. 16.2
4. 20.6
5. 38.7
6. 11.4

stdin: Query TGI on HCT-116 colon for CCCCC/C=C1\CC(CO)(COC(=O)CC(C(C)C)C(C)C)OC1=O (stereo not given)
stdout: 44.4

----------
Test system: EKVX NSCLC
method: NCI tumour cell line growth inhibition, 48 h
experimental-readout: GI50

O=[N+]([O-])c1cccc2nc3ccccc3c(NCCO)c12    0.00547 µM
O=c1ccc(N=Nc2ccccc2)ccc1Cl    11.5 µM

# next compound below
stdin: Field: GI50 (EKVX NSCLC). Entry: `CCN(CCCNC(=O)Cc1cc(=O)oc2cc(N(C)C)ccc12)CCNc1ccnc2cc(Cl)ccc12`
stdout: 22.2 µM

----------
I'd appreciate it if you could supply TGI values for the items below.
System: A549 NSCLC
method: NCI tumour cell line growth inhibition, 48 h

Please review the following examples before continuing.
O=C(c1ccco1)N(Cc1cccnc1)C(=S)N(Cc1cccnc1)C(=O)c1ccco1    38.8 µM
COc1ccc(-c2nc3ccc([N+](=O)[O-])cc3c(=O)[nH]2)cc1    > 100 µM
CCCCCCCCCCCCCCCCNC(=O)OC(C)C    3.82 µM
COc1ccc(/C=C2\CS(=O)(=O)C/C(=C\c3ccc(OC)cc3)C2=O)cc1    5.29 µM
Brc1sc(Br)c2c1[C@H](Br)C[C@@H]2Br    > 100 µM
CN(C)c1ccc(C=NC23CC4CC(CC(C4)C2)C3)cc1    > 100 µM
CCCCCOC(=O)C(=O)Nc1n[nH]nc1C(N)=O    > 100 µM
CCN(CC)c1ncnc2c1ncn2CCNC(CO)(CO)CO    > 100 µM
N#CCCN(CCNc1ccccc1)C(=O)Nc1ccc(NC(=O)N(CCC#N)CCNc2ccccc2)cc1    > 100 µM
CCOC(=O)NC(=O)c1cn(-c2ccc(CCOC(=O)NCCCCCCNC(=O)OCCc3ccc(-n4c(=O)[nH]cc(C(=O)NC(=O)OCC)c4=O)cc3)cc2)c(=O)[nH]c1=O    > 100 µM

Parameter requested: TGI. Apply to each item below.
1. CC(=O)OCC1OC(OC2CCCC[Si](c3ccccc3)(c3ccccc3)O2)C(OC(C)=O)C(OC(C)=O)C1OC(C)=O (stereo unspecified)
2. O=NN(CCCl)C(=O)NC1CCC(C(=O)O)CC1 (stereo unspecified)
3. C[C@]12CC[C@@H]3c4ccc(O)cc4CC[C@H]3[C@@H]1CC[C@@H]2OC(=O)CCC1CCCC1
4. C=C1C(=O)O[C@H]2[C@H]1CC/C(COC(=O)NCc1ccc(Cn3c(=O)sn(CCI)c3=O)cc1)=C\CC[C@@]1(C)O[C@@H]21

stdout:
1. > 100 µM
2. > 100 µM
3. 32.2 µM
4. 32.4 µM

Hey, can you go through the list below and give me TGI for every item?
1. Cc1cc(O)c(C=NC(=S)C(N)=S)c(=O)o1
2. O=[N+]([O-])c1cccc2nc3ccccc3c(NCCO)c12
3. CC1OC(=O)C2CC3CCCCC3C(/C=C/C3CCCC(C)N3C)C12 (stereo unspecified)
4. CNc1cc(N)ccc1C(=O)N1CCC[C@H]1CO
5. C[C@]12CCc3nonc3C1CC[C@@H]1C2CC[C@]2(C)C(=O)/C(=N\O)CC12 (stereo partly specified)
6. CCP(=S)(CC)CCl
7. Cc1nc2c(=O)n(C)c(=O)n(C)c2o1

stdout:
["> 100 µM", "0.00146 µM", "> 100 µM", "> 100 µM", "> 100 µM", "> 100 µM", "> 100 µM"]

Origin of the recorded values: PubChem BioAssay (NCI)
